Each recorded value in this set is attributed to ChEMBL document CHEMBL3045652.

# System: Helicoverpa armigera
# method description: Insecticidal activity against second-instar larval stage of Helicoverpa armigera fed with artificial diet containing compound assessed as growth inhibition after 7 days
# Format: functional, organism-based

molecule	growth inhibition (GI)
CCCCCCCC(=O)OC1CCC(OC2CCC(OC(=O)CCCCCCC)CC2)CC1 (stereo not drawn)	Dose-dependent effect
CCCCC(=O)OCCCCCOC(=O)CCCC [PENTANE-1,5-DIPENTANOATE]	Dose-dependent effect
CCCCCCCC(=O)OCC(C)COC(=O)CCCCCCC	Dose-dependent effect
